Where these numbers come from: ChEMBL document CHEMBL1201862

Test system: CCRF-CEM
Test: NCI tumour cell line growth inhibition, 48 h
The source made the active and inactive calls. Rule as the data show it: active = GI50 up to about 1.1 µM and inactive = higher.
Please answer using one outcome listed in Y for active, N for inactive

Problem: Please indicate how the test categorized CCC(C)(C)/C(CC(O)(C(F)(F)F)C(F)(F)F)=N\O .
Solution: N

Problem: Please do the same for Cc1cc(S(=O)(=O)Nc2nc(N)nc(N3N=CCC3C)n2)c(S)cc1Cl (stereo not given) as well.
Solution: N

Problem: Please do the same for Cn1nc(-c2ccccc2)c(C(=O)/C=C/c2ccccc2)c(N2CCCCC2)c1=O as well.
Solution: N

Problem: Please do the same for O/N=C(\C=N\O)c1ccc2c(c1)Sc1ccccc1O2 as well.
Solution: N

Problem: Please do the same for C(=N/c1ccccc1C1SCCCS1)/c1ccccc1 as well.
Solution: N

Problem: Please do the same for CCC(C)(O)c1cn(-c2cccc(S(=O)(=O)O)c2)nn1 (stereo not given) as well.
Solution: N

Problem: Please do the same for CO[C@H]1C[C@H](O[C@H]2CC[C@]3(C=O)[C@H]4CC[C@]5(C)[C@@H](C6=CC(=O)OC6)CC[C@]5(O)[C@@H]4CC[C@]3(O)C2)O[C@H](C)[C@H]1O[C@@H]1O[C@H](CO[C@@H]2O[C@H](CO)[C@@H](O)[C@H](O)[C@H]2O)[C@@H](O)[C@H](O)[C@H]1O as well.
Solution: N

Problem: Please do the same for CC(C)(C)[Si](C)(C)OC1CCOC1(O)c1ccccn1 (stereo not given) as well.
Solution: N

Problem: Please do the same for Nc1nc(-c2ccccc2)nc2c1[n+]([O-])c1ccccc1[n+]2[O-] as well.
Solution: N

Problem: Please do the same for C=CCn1c(=O)c(C)cn(/C(=C/C(=O)OCC)C(=O)OCC)c1=O as well.
Solution: N

Problem: Please do the same for COc1ccc2c(c1)CC1C3(CCCCC23)CC[N+]1(C)C (stereo not given) as well.
Solution: N

Problem: Please do the same for CCCCC1=C(Br)C(=C(Br)Br)OC1=O as well.
Solution: N

Problem: Please do the same for C[C@H]1C/C=C/[C@H]2[C@@H]3O[C@]3(C)[C@@H](C)[C@H]3[C@H](Cc4ccccc4)NC(=O)[C@]32OC(=O)O/C=C/[C@@](C)(O)C1=O as well.
Solution: Y

Problem: Please do the same for CCOC(=O)C1C(=O)CC(C)(O)C(C(=O)OCC)C1c1ccc(OC)cc1 (stereo not given) as well.
Solution: N

Problem: Please do the same for C#CCN(C(=O)C(F)(F)F)c1ccc(C(=O)c2ccc(N(CC#C)C(=O)C(F)(F)F)cc2)cc1 as well.
Solution: N

Problem: Please do the same for CN1CCN2CCN(C)CCN(CC1)CC2 as well.
Solution: N

Problem: Please do the same for C=Cc1c(C)c(OC)cc2c1Oc1ccc(OC)c(C)c1CC2 as well.
Solution: N

Problem: Please do the same for COc1cc(C(C)c2cc3c(cc2OCCCCCOc2cc4c(cc2C(C)c2cc(OC)c(OC)c(OC)c2)OCO4)OCO3)cc(OC)c1OC (stereo not given) as well.
Solution: N

Problem: Please do the same for O=P1(C(O)c2ccccc2)N(Cc2ccccc2)[C@@H]2CCCC[C@H]2N1Cc1ccccc1 (stereo not given in full) as well.
Solution: N

Problem: Please do the same for CCCn1c(C23CC4CC(CC(C4)C2)C3)nc2ccc(Cl)cc2c1=O as well.
Solution: N
